Assay: yeast display, Sf9 membrane polyspecificity reagent, FACS + sequencing; frameworks hold sequencing errors
MEASURED PARAMETER: polyreactivity (PSR sort gate)

## Input Report polyreactivity (PSR sort gate) for QVQRVESGGGLVQAGGSLRLSSADSGLTLYRYAMGWYRQAPGKERELVAAISSGDRTNYADSVKGRFTISRDNAKNTVYLHMNSLKPEDTAVYYCAALRQARQKKYGYWGQGTQVTVSS please.
## Output high polyreactivity

## Input Report polyreactivity (PSR sort gate) for QVQLVESGGCLVQAGRSLRLSCAASGRTFPTYAMGWYRQAPGKERELVAAIRISGGRTYYADSVKGRFTISRDISKNTVYLQMNSLKPEDTAVYYCATRDRAGYYYWGQGTQVTVSS please.
## Output high polyreactivity

## Input Report polyreactivity (PSR sort gate) for RVQLQESGGGLVQAGGTLRLSCAASGTIFIRGDMGWYRQAPGKEREFVATIDTGSNTYYADSEKGRFTISRDNAKKAVYLQMNCLKPGDTAVYYCVVDYQLSGRLWDWGQGTQVTLSS please.
## Output low polyreactivity

## Input Report polyreactivity (PSR sort gate) for QVQLVESGGGLVQAGGSLRLSSAASGITLKRYALGWYRHAPGKERELVAAITGRGGGTNYADSVKGRFTISRDNAKNTVYLQMNSLKPEDTAVYYCAARYLQGRYDYWGQGTQVTVSS please.
## Output high polyreactivity

## Input Report polyreactivity (PSR sort gate) for QVQLVESGGGLVQAGGSLRLSCAASGSTFYAYAMGWYRQAPGKERELVAAISSDGSTNYADSVKGRFTISRDNAKNTVYLQMNSLKPEDTAVYYCAADDNGAWVRMDYWGQGTQVTVSS please.
## Output low polyreactivity

## Input Report polyreactivity (PSR sort gate) for QVQLVESGGGLVQAGGSLRLSCAASGRIFRKYGMGWYRPAPGKERELVAAITGGGSTYYADSVKGRFTISRDNAKNTVYVQMNSLKPEDTAVYYCARGGYRWYPYVYVPSPFDYWGQGTQVTVSS please.
## Output high polyreactivity

Others:
## Input Report polyreactivity (PSR sort gate) for QVQIVESGGALVQAGGSLRFSCAASGSIFFSNTRGWYRQAPGKEREFVAAITWSTGNTYYADSVKGRFTISRDNAKNTVYLQMNSLKPEDTAVYYCYAEYLVITWYGGVEFDYWGQGTQVTVSS please.
## Output low polyreactivity

## Input Report polyreactivity (PSR sort gate) for QVQLVESGGGLVQAGGSLRLSCAASGRTFRYYAMGWYRQAPGKERELVAAISYSGGSTYYADSVKGRFTISRDNAKNTVYLQMNSLKPEDTAVYYCAAGPWHYKYSLRGWGYYWGQGTQVTVSS please.
## Output high polyreactivity

## Input Report polyreactivity (PSR sort gate) for QVQLVESGGGLVQAGGSLRLSCAASGRTFYSNAMGWYRPAPGKERELVAAITFGGGSTYYADSVKGRFTISRDNAKNTVYVQMNSLKPEDTAVYYCAAEGYKYRFYYWGQGTQVTVSS please.
## Output low polyreactivity

## Input Report polyreactivity (PSR sort gate) for QVQLVESRGGLVQAGVSLRLSCSASGSIFPYYAMGWYRQAPGKEREFVASISSVTSTYADSVKGRFTISRDNAKNTVYFQMYILIPEDTAVYYFAADRAYSWYSVSRNNYWGPGTQVTVSS please.
## Output low polyreactivity

## Input Report polyreactivity (PSR sort gate) for QVQLVESGGGLVQAGGSLRLSCAASGLTFRYYAMGWYREAPGKEREFVAAITSSGGSTDYADSVKGRFTISRDNAKNSVYLQMNSVKPDDTGVFYCAAATNTQESVPMYYWGQGTQVTVSS please.
## Output low polyreactivity
